Consider the following compounds and their measured normalised viability readings.
test system: HCC1143; test: normalised viability (% of control), CellTiter-Blue; higher = more viable cells (100 = DMSO, 0 = benzethonium chloride kill control); conditions: incubation time: 72 h
Return type: number; implicit unit %.

Reference set (5 entries):
CCC1(c2ccc(N)cc2)CCC(=O)NC1=O (stereo unspecified) [Aminoglutethimide] (1 nM) :: 109
CCN(CCCOc1ccc2c(Nc3cc(CC(=O)Nc4cccc(F)c4)[nH]n3)ncnc2c1)CCOP(=O)(O)O [Barasertib] (0.1 nM) :: 107
C=C(c1ccc(C(=O)O)cc1)c1cc2c(cc1C)C(C)(C)CCC2(C)C [Bexarotene] (1 nM) :: 110
O=P1(NCCCl)OCCCN1CCCl (stereo unspecified) [Ifosfamide] (1 nM) :: 88.9
O=C1CCC(N2C(=O)c3ccccc3C2=O)C(=O)N1 (stereo unspecified) [Thalidomide] (1 nM) :: 100

Input N.N.[Cl][Pt][Cl] [Cisplatin] (1 nM) . Output normalised viability: 98.2

---

# normalised response per entry
test system: MDA-MB-231; experiment: normalised response (% of control), CellTox Green; higher = less cell death (100 = DMSO, 0 = benzethonium chloride kill control); conditions: incubation time: 72 h
Field format: number, assumed %, no unit text.

CN(N=O)C(=O)N[C@@H](C=O)[C@@H](O)[C@H](O)[C@H](O)CO [Streptozocin] (100 nM) :: 113
Oc1nc(-c2ccc(C(F)(F)F)cc2)nc2c1CSCC2 [XAV-939] (1000 nM) :: 102
CCC1=C[C@@H]2CN(C1)Cc1c([nH]c3ccccc13)[C@@](C(=O)OC)(c1cc3c(cc1OC)N(C)[C@H]1[C@@](O)(C(=O)OC)[C@H](OC(C)=O)[C@]4(CC)C=CCN5CC[C@]31[C@@H]54)C2 [Vinorelbine] (1000 nM) :: 20.9
CCC1(c2ccc(N)cc2)CCC(=O)NC1=O (centres undefined) [Aminoglutethimide] (100 nM) :: 98
Cn1c(CCCC(=O)O)nc2cc(N(CCCl)CCCl)ccc21 [Bendamustine] (1000 nM) :: 117
CCC(C)(C)C(=O)O[C@H]1C[C@@H](C)C=C2C=C[C@H](C)[C@H](CC[C@@H]3C[C@@H](O)CC(=O)O3)[C@H]21 [Simvastatin] (1000 nM) :: 86.9
Cc1ccc(C(=O)Nc2ccc(CN3CCN(C)CC3)c(C(F)(F)F)c2)cc1C#Cc1cnc2cccnn12 [Ponatinib] (100 nM) :: 97.6
O=C(O)c1ccc(-c2c[nH]c3ncc(-c4ccccc4)cc23)cc1C1CCCC1 (1000 nM) :: 86.1

Now, please, on to the next compound.
Entry CC(=O)Nc1ccc(C(=O)Nc2ccccc2N)cc1 [Tacedinaline] (1000 nM) , tested on MDA-MB-231, has a reported normalised response of 111

---

tested on: HDQ-P1; assay: normalised viability (% of control), CellTiter-Blue; higher = more viable cells (about 100 = DMSO control); conditions: incubation time: 72 h
Listed molecules paired with reported normalised viability
Your answer is read as %, so omit the unit and give the number.

# normalised viability of C[C@]12CC[C@@H]3c4ccc(O)cc4C[C@@H](CCCCCCCCC[S+]([O-])CCCC(F)(F)C(F)(F)F)[C@H]3[C@@H]1CC[C@@H]2O (stereo partly specified) [Fulvestrant] (1000 nM) = 84.3

Noted for NC(=O)Nc1cc(-c2cccc(F)c2)sc1C(=O)N[C@H]1CCCNC1 [AZD 7762] (100 nM) : its normalised viability reads 96.5

The recorded normalised viability for CC(=O)Nc1ccc(C(=O)Nc2ccccc2N)cc1 [CI-994] (100 nM) is 119

So, N[C@@H](CSC(c1ccccc1)(c1ccccc1)c1ccccc1)C(=O)O [S-trityl-L-cysteine] (4000 nM) ? Its normalised viability was 86.5

// normalised viability lookup, molecule = CCN(CCCOc1ccc2c(Nc3cc(CC(=O)Nc4cccc(F)c4)[nH]n3)ncnc2c1)CCOP(=O)(O)O [Barasertib] (100 nM) , result: 76.5

normalised viability recorded for this molecule, C=C(c1ccc(C(=O)O)cc1)c1cc2c(cc1C)C(C)(C)CCC2(C)C [Bexarotene] (1000 nM) , is 76
